Target: IDO1 (Homo sapiens, UniProt P14902)
Sequence (P14902 whole entry): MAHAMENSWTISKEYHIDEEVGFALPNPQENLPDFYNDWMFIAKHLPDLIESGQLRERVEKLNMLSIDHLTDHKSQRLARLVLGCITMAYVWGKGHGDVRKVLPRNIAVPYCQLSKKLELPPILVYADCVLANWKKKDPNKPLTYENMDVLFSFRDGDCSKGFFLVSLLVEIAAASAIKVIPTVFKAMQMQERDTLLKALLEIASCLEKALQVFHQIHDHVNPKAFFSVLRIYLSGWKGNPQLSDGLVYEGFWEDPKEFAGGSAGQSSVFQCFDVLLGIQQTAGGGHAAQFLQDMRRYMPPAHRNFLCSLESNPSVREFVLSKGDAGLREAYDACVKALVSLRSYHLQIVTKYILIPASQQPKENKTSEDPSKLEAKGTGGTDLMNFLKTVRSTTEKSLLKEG
Assay: IDO1 Cellular Assay in HeLa Cells Stimulated with IFNγ
Assay type: cell-based
Conditions: about 48 hours, read-out: Hela IC50
Define the label as 1 (yes) when IC50 is strictly less than 30 nM and as 0 (no) in all remaining cases.

{"molecule": "Cc1ccc(C(=O)NC2(c3ccc4c(n3)CCCN4c3ccnc(C)n3)CC2)cc1 [Example 303]", "classAssignment": "1 (yes)"}
{"molecule": "CC(NC(=O)c1ccc(F)cc1)c1ccc2c(n1)CCCN2C(=O)c1ccccn1 (stereo not shown) [Example 280, 2,2,2-trifluoroacetate]", "classAssignment": "1 (yes)"}
{"molecule": "CC(NC(=O)c1ccc(F)cc1)c1ccc2c(n1)C(=O)CCN2C(=O)C1CC1 (stereo not shown) [Example 192]", "classAssignment": "0 (no)"}
{"molecule": "CC(NC(=O)c1ccc(F)cc1)c1ccc2c(n1)C(F)CCN2C(=O)C1CC1 (single isomer, unassigned) [Example 203]", "classAssignment": "0 (no)"}
{"molecule": "COC(C(=O)Nc1ccc(F)cn1)c1ccc2c(c1)CCCN2C(=O)C1CC1 (single isomer, unassigned) [Example 157]", "classAssignment": "0 (no)"}
{"molecule": "CCn1cc(C(=O)N2CCCc3cc(C4(C(=O)Nc5ccc(F)cc5)CCC4)ccc32)cn1 [Example 112]", "classAssignment": "1 (yes)"}
{"molecule": "CC(NC(=O)c1ccc(F)cc1)c1ccc2c(n1)CCCN2C(=O)c1ccn(C)n1 (stereo not shown) [Example 138]", "classAssignment": "1 (yes)"}
{"molecule": "C[C@H](NC(=O)c1ccc(F)cc1)c1ccc2c(c1)CCCN2C(=O)C1(F)CC1 (single isomer, unassigned) [Example 32]", "classAssignment": "1 (yes)"}
{"molecule": "O=C(Nc1ccc(F)cc1)C1(c2ccc3c(n2)CCCN3c2ccnc(C3CC3)n2)CCC1 [Example 401]", "classAssignment": "1 (yes)"}
{"molecule": "Cc1cncc(N2CCCc3nc(C4(NC(=O)c5ccc(F)cc5)CC4)ccc32)n1 [Example 296]", "classAssignment": "1 (yes)"}

====

Target: IDO1 (Homo sapiens)
Assay: IDO1 Cellular Assay in HeLa Cells Stimulated with IFNγ
Assay type: cell-based
Settings: about 48 hours, read-out: Hela IC50
pIC50: −log10 of the molar value.
propertyLabel: pIC50

{"molecule": "Cc1nccc(N2CCCc3nc(C4(NC(=O)c5ccc(Cl)cc5)CC4)ccc32)n1 [Example 299]", "reported": 9.13}
{"molecule": "Cc1nccc(N2CCCc3nc(C(C)NC(=O)c4ccc(Cl)cc4)ccc32)n1 (stereo not shown)", "reported": 8.70}
{"molecule": "C[C@@H](NC(=O)c1ccc(Cl)cc1)c1ccc2c(n1)OCCN2C(=O)c1cccc(Cl)c1 (single isomer, unassigned)", "reported": 7.13}
{"molecule": "C[C@H](C(=O)Nc1ccc(F)cc1)c1ccc2c(c1)CCCN2C(=O)CC(C)(C)O", "reported": 7.52}

====

Listing of entries alongside the reported pIC50.
Molecular target: IDO1 (Homo sapiens, UniProt P14902)
Assay: IDO1 Cellular Assay in HeLa Cells Stimulated with IFNγ
Assay type: cell-based
Conditions: about 48 hours, read-out: Hela IC50
pIC50: −log10 of the molar value.

{"compound": "CCN(C(=O)N1CCc2cc(C3(C(=O)Nc4ccc(Cl)cc4)CCC3)ccc21)C(C)C", "pIC50": 8.48}
{"compound": "C[C@H](C(=O)Nc1ccc(Cl)cc1)c1ccc2c(c1)CCCN2C(=O)c1cccc(Cl)c1 (single isomer, unassigned)", "pIC50": 8.51}
{"compound": "CC(C)CC(=O)N1CCCc2cc(C(C)NC(=O)c3ccc(Cl)cc3)ccc21 (single isomer, unassigned)", "pIC50": 8.37}
